Parameter: pIC50. Scope: all listed entries.
# target_or_system: Hypoxia-inducible factor 1-alpha (Homo sapiens)
# experiment_notes: Inhibition of HIF1alpha transcriptional activity in human Hep3B cells after 24 hrs in hypoxic condition by HRE-dual luciferase reporter gene assay
Would you please state pIC50, meaning minus log10 of the concentration in mol/L, as a bare number?

// solved cases for pIC50 follow
structure_smiles_string | pIC50
C[C@H]1[C@H](C)CC[C@]2(C(=O)OCc3cccc(Cl)c3)CC[C@]3(C)C(=CC[C@@H]4[C@@]5(C)CC/C(=N\NC(=N)N)C(C)(C)[C@@H]5CC[C@]43C)[C@H]12 | 4.52
C[C@H]1[C@H](C)CC[C@]2(C(=O)O)CC[C@]3(C)C(=CC[C@@H]4[C@@]5(C)CC/C(=N\NC(N)=O)C(C)(C)[C@@H]5CC[C@]43C)[C@H]12 | 4.88
C[C@H]1[C@H](C)CC[C@]2(C(=O)O)CC[C@]3(C)C(=CC[C@@H]4[C@@]5(C)CC(=C\c6ccccc6)/C(=N\NC(=N)N)C(C)(C)[C@@H]5CC[C@]43C)[C@H]12 | 4.42
C[C@H]1[C@H](C)CC[C@]2(C(=O)OCc3ccc(Cl)cc3)CC[C@]3(C)C(=CC[C@@H]4[C@@]5(C)CC/C(=N\NC(=N)N)C(C)(C)[C@@H]5CC[C@]43C)[C@H]12 | 4.68
C[C@H]1[C@H](C)CC[C@]2(C(=O)OCc3c(Cl)cccc3Cl)CC[C@]3(C)C(=CC[C@@H]4[C@@]5(C)CC/C(=N\NC(=N)N)C(C)(C)[C@@H]5CC[C@]43C)[C@H]12 | 4.88

Recorded pIC50 (compound C[C@H]1[C@H](C)CC[C@]2(C(=O)O)CC[C@]3(C)C(=CC[C@@H]4[C@@]5(C)CC(=C\c6cccc(Br)c6)/C(=N\NC(=N)N)C(C)(C)[C@@H]5CC[C@]43C)[C@H]12 ): 4.12

====

# target_or_system: Hypoxia-inducible factor 1-alpha (Homo sapiens, UniProt Q16665)
# Sequence (Q16665 whole entry): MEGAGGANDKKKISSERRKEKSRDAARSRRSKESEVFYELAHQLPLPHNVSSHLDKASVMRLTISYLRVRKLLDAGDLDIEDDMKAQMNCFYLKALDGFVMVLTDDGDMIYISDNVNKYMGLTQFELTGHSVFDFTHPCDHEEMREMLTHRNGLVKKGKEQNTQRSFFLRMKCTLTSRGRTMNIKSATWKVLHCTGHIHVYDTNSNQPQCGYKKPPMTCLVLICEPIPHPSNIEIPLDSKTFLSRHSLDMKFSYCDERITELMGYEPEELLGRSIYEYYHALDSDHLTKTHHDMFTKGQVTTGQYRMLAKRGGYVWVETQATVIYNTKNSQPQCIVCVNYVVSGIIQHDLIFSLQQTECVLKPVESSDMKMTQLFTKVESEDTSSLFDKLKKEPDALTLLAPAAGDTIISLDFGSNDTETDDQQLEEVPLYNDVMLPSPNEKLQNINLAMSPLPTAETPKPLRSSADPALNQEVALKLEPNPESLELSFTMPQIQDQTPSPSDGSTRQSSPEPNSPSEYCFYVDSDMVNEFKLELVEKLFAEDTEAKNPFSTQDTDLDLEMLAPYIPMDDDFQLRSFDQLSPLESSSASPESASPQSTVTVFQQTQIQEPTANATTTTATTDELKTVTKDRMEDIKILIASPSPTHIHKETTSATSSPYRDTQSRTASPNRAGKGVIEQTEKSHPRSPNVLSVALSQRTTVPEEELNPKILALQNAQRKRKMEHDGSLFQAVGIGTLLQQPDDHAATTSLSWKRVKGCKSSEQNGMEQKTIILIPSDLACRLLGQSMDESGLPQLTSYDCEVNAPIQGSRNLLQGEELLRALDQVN
# experiment_notes: Inhibition of HIF1alpha transcriptional activity in human Hep3B cells after 24 hrs in hypoxic condition by HRE-dual luciferase reporter gene assay
reported_property: pIC50
The read-out pIC50 is expressed as -log10 of concentration in moles per litre.

See these solved cases before continuing.
structure_smiles_string | target_or_system | numeric_result
C[C@H]1[C@H](C)CC[C@]2(C(=O)O)CC[C@]3(C)C(=CC[C@@H]4[C@@]5(C)CC/C(=N\NC(N)=S)C(C)(C)[C@@H]5CC[C@]43C)[C@H]12 | Hypoxia-inducible factor 1-alpha (Homo sapiens, UniProt Q16665) | 4.05
C[C@H]1[C@H](C)CC[C@]2(C(=O)O)CC[C@]3(C)C(=CC[C@@H]4[C@@]5(C)CC(=C\c6cccs6)/C(=N\NC(=N)N)C(C)(C)[C@@H]5CC[C@]43C)[C@H]12 | Hypoxia-inducible factor 1-alpha (Homo sapiens, UniProt Q16665) | 4.64
Cc1ccc(COC(=O)[C@]23CC[C@@H](C)[C@H](C)[C@H]2C2=CC[C@@H]4[C@@]5(C)CC/C(=N\NC(=N)N)C(C)(C)[C@@H]5CC[C@@]4(C)[C@]2(C)CC3)cc1 | Hypoxia-inducible factor 1-alpha (Homo sapiens, UniProt Q16665) | 4.99
C[C@H]1[C@H](C)CC[C@]2(C(=O)OCc3ccc(Cl)cc3Cl)CC[C@]3(C)C(=CC[C@@H]4[C@@]5(C)CC/C(=N\NC(=N)N)C(C)(C)[C@@H]5CC[C@]43C)[C@H]12 | Hypoxia-inducible factor 1-alpha (Homo sapiens, UniProt Q16665) | 4.39

We next turn to a different molecule, shown below.
# pIC50 of COC(=O)[C@]12CC[C@@H](C)[C@H](C)[C@H]1C1=CC[C@@H]3[C@@]4(C)CC/C(=N\NC(=N)N)C(C)(C)[C@@H]4CC[C@@]3(C)[C@]1(C)CC2 = 5.17
